test system: HT29 colon; assay: NCI-60 one-dose screen, 48 h; conditions: 10 µM unless noted
Compounds without any hit were thinned out: in the full panel of roughly 83,000, 20% have a hit. Active and inactive are the calls of the source. Rule for the calls: active = growth percent below 10; inactive = the rest.
Outcome codes: True (active), False (inactive)

1. CCOC(=O)CCC(=O)O[C@H]1[C@H](O[C@@H]2[C@@H](C)[C@H](O[C@H]3C[C@@](C)(OC)[C@@H](O)[C@H](C)O3)[C@@H](C)C(=O)O[C@H](CC)[C@@](C)(O)[C@H](O)[C@@H](C)C(=O)[C@H](C)C[C@@]2(C)O)O[C@H](C)C[C@@H]1N(C)C: False
2. O=C1c2cccc3c([N+](=O)[O-])ccc(c23)C(=O)N1CCCCl: True
3. CN1C(=O)C(C2=NN(C=O)C(c3ccc(F)cc3)C2)C(=O)N(C)C1=O (stereo not drawn): False
4. C[N+]1(C)C2CC[C@@H]1CC(OC(=O)C(O)c1ccccc1)C2 (stereo partly drawn): False
5. Cc1ccc2c(c1)C(=O)/C(=C\Nc1ccc(C(N)=O)cc1)C(O)O2 (stereo not drawn): False
6. COc1ccc2c(c1)CC/C(=C\c1ccc(OCC(=O)Nc3nc4ccccc4s3)cc1)C2=O: False
7. N/C(=N\C(N)=N\c1nc2ccccc2s1)c1ccnc(Cl)c1: False
8. CCN(CC)CCNCC(=O)Oc1ccc(/C=C/C(=O)CC(=O)/C=C/c2ccc(OC(=O)CNCCN(CC)CC)c(OC)c2)cc1OC: True
